Provide the recorded CC50 for the entries that follow.
- Test system: HepG2
- Experiment Summary: Cytotoxicity against human HepG2 cells by MTT assay
- Assay type: functional
- Conditions: read-out: CD50 (the source's name)
Numbers only, in µM.

Please review the following examples before continuing.
C[C@H]1COC2=C1C(=O)C(=O)c1c2ccc2c1CCCC2(C)C [CRYPTOTANSHINONE]; 29.7
Cc1nc2c3c(c4ccc5c(c4c2o1)CCCC5(C)C)OCC3C (stereo unspecified); 121
Cc1nc2c(o1)c1c3c(ccc1c1occ(C)c21)C(C)(C)CCC3 [NEOSALVIANEN]; 59.2

Would you mind listing CC50 for each of the following compounds?
1. CC(C)C1=Cc2ccc3c4c([nH]c(c24)C1=O)C(=O)CC3(C)C [SALVIADIONE]
2. Cc1coc2c1C(=O)C(=O)c1c-2ccc2c1CCCC2(C)C [TANSHINONE IIA]
3. Cc1nc2c(o1)c1c(C)coc1c1ccc3c(c12)CCCC3(C)C [SALVIANEN]

[137, 26.5, 30.4]

----------
- System: HeLa
- Experiment Summary: Cytotoxicity against human HeLa cells by MTT assay
- Type: functional
- Conditions: read-out: CD50 (the source's name)
Provide the recorded CC50 for the entries that follow.

Would you mind listing CC50 for each of the following molecules?
1. Cc1nc2c(o1)c1c(C)coc1c1ccc3c(c12)CCCC3(C)C
2. C[C@H]1COC2=C1C(=O)C(=O)c1c2ccc2c1CCCC2(C)C
3. Cc1nc2c(o1)c1c3c(ccc1c1occ(C)c21)C(C)(C)CCC3
4. CC(C)C1=Cc2ccc3c4c([nH]c(c24)C1=O)C(=O)CC3(C)C
5. Cc1coc2c1C(=O)C(=O)c1c-2ccc2c1CCCC2(C)C
6. Cc1nc2c3c(c4ccc5c(c4c2o1)CCCC5(C)C)OCC3C (stereo unspecified)

32.3 µM
17.2 µM
63.9 µM
178 µM
8.5 µM
108 µM
